pIC50 reference
Target: Protein kinase C gamma type (Rattus norvegicus, UniProt P63319)
pIC50 here: minus log base 10 of the concentration, concentration in moles per litre.

Some solved entries appear below for comparison.
Chemical Structure	pIC50
Cc1cc2ccc3[nH]cc4c3c2n1[C@@H](C(C)C)C(=O)N[C@H](CO)C4	5.00
CC(C)[C@H]1C(=O)N[C@H](CO)Cc2c[nH]c3ccc4c(c23)N1[C@@H](C)C4	4.62

--- query ---
Query string: Fill blank: measured pIC50 of the compound CC(C)[C@H]1C(=O)N[C@H](CO)Cc2c[nH]c3cccc(c23)N1C is ____.
Result string: 5.56
